Recorded values, source patent US20260167721A1.

# Tested target: T1, recombinant human CD3 epsilon/delta heterodimer (human, UniProt P07766 23-126; P04234 22-105)
# T1 construct: Recombinant protein in solution (200-50 nM) in the Octet assay; also called hCD3 E/D; human CD3E/D
# T1 sequence (P07766 23-126, stated change not applied, chain 1 of 2): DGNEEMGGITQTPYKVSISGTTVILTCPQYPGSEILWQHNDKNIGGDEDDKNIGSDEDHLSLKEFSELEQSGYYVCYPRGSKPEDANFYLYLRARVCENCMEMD
# T1 sequence (P04234 22-105, stated change not applied, chain 2 of 2): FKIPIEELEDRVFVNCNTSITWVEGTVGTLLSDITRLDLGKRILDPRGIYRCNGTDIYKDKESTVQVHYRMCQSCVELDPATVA
# Assay notes: Octet BLI, mAb on FAB2G sensor, hCD3 E/D 200-50 nM; R^2 0.99
Measure: kon (M⁻¹ s⁻¹)
// return numeric value only (unit: M⁻¹ s⁻¹, not printed)

| Binder | Measure | Measure unit | Recorded value |
| --- | --- | --- | --- |
| ABL-CD3-25 (antibody, V domains shown, Chimeric hybridoma mAb: human V, CH1, upper hinge; mouse middle hinge, CH2, CH3) VH: EVHLVESGGGLVKPGGSLRLSCAASGFTFSSYSMNWVRQAPGKGLEWVSSISSSSTYIYYADSVKGRFTISRDNAKNSLYLQMNSLRAEDTAVYYCAREPRTLGMDYWGQGILVTVSS VL: NFMLTQPHSVSESPGKTVTISCTRSSGSIASNYVQWYQQRPGSSPTTVIYEDNHRPSGVPDRFSGSIDSSSNSASLTISGLKTEDEADYFCQSFDSSNRVFGGGTKLTVL | kon | M⁻¹ s⁻¹ | 109000 |

Next up:
Q: Given ABL-CD3-9 (antibody, V domains shown, Chimeric hybridoma mAb: human V, CH1, upper hinge; mouse middle hinge, CH2, CH3) VH: EVQLVDSGGGLVKPGGSLRLSCAASGFTFSSYSMNWVRQAPGKGLEWVSSVNSRGSYIYYADSVKGRFTISRDNAKNSLYLQMNSLRADDTAVYYCARDRRELLLDYWGQGTLVTVSS VL: SYELTQPPSVSVSPGQTARITCSGDALPKKYAYWYQQKSGQAPVLVIYEDSKRPSGIPERFSGSSSGTMATLTISGAQVEDEADYYCYSTDSSGNHCWVFGGGTKLTVL , state its recorded kon.
Ans: 555000
